Target or system JNK1α1 (Homo sapiens, UniProt P45983); recorded quantity log10(Ki).
Remember, log10 of Ki, in nM.

Use the examples below as a reference point.
* CC(O)c1cccc(NC(=O)c2cccc3cnc(N[C@H]4CC[C@H](O)CC4)nc23)n1 (some centres unmarked) | 2.58
* O=C(Cc1ccccc1)Nc1cc2cc(-c3cn[nH]c3)ccc2cn1 | 1.59
* CCC[C@@H](CO)NC(=O)c1ccc2cnc(NC3CCC3)nc2c1 | 2.65
* c1cnc(N2CCC(Nc3cc4cc(-c5cn[nH]c5)ccc4cn3)CC2)nc1 | 2.68

The following compounds each have a reported value; give each one's log10(Ki).
1. CC1(CNC(=O)c2cccc3cnc(N[C@H]4CC[C@H](O)CC4)nc23)COC1
2. O=C(NCc1ccccc1)c1ccc2cnc(N[C@H]3CC[C@H](O)CC3)nc2c1
3. CCC[C@@H](CO)NC(=O)c1ccc2cnc(N[C@H]3CC[C@H](O)CC3)nc2c1
4. Cc1cc(C(=O)NCC(=O)Nc2cc3cc(-c4cn[nH]c4)ccc3cn2)no1
5. O=C(N[C@@H]1COC[C@H]1O)c1cccc2cnc(N[C@H]3CC[C@H](O)CC3)nc12 (relative stereo)

Reply:
[2.23, 2.64, 2.17, 1.11, 1.20]

For each entry beneath this line, provide reported log10(Ki).
1. CN(C)C(=O)CCC(=O)Nc1cc2cc(-c3cn[nH]c3)ccc2cn1
2. O=C(COCc1ccccc1)Nc1cc2cc(-c3cn[nH]c3)ccc2cn1
3. O=C(N[C@H](CO)Cc1ccccc1)c1ccc2cnc(NC3CCCC3)nc2c1
4. Cc1ccc2cnc(N[C@H]3CC[C@H](O)CC3)nc2c1OCC(=O)N1CCOCC1
5. O=C(CC1CCOCC1)Nc1cc2cc(-c3cn[nH]c3)ccc2cn1

Reply:
[0.90, 0.48, 2.87, 2.89, 1.30]

* * *

molecular target: JNK1α1 (Homo sapiens, UniProt P45983); construct: catalytic domain containing amino acids 1-364 and N-terminal hexahistidine tag; hexahistidine (His6) (N); made in house; host or cells: E. coli BL21 (DE3); experiment: Coupled spectrophotometric (PK/LDH) JNK1α1 assay: % inhibition and Ki determination; format: biochemical; settings: @1 uM; read-out: % Inhibition JNK-1
Sequence (P45983 1-364): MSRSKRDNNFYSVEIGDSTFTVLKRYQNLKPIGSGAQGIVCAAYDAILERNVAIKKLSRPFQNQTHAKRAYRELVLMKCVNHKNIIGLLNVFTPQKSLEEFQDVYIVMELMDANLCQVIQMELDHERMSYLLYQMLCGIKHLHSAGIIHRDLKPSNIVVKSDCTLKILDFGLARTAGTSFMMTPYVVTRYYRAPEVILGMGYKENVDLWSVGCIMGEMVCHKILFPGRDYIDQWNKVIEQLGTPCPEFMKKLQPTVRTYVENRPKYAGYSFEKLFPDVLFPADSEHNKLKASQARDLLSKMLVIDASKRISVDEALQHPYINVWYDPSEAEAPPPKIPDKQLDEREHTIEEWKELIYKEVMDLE
parameter: inhibition at 1 µM

Examples with answers:
• CNC(=O)c1ccc2c(c1)CCO[C@H]2CCOc1ccc2cnc(N[C@H]3CC[C@H](O)CC3)nc2c1 [Example 292] = 54%
• O[C@H]1CC[C@H](Nc2ncc3ccc(O[C@H]4CCN(Cc5ccccc5)C4)cc3n2)CC1 [Example 277] = 46%
• O=C1CC[C@@H](COc2ccc3cnc(N[C@H]4CC[C@H](O)CC4)nc3c2)N1 [Example 280] = 37%
• O[C@H]1CC[C@H](Nc2ncc3ccc(OC4CCOCC4)cc3n2)CC1 [Example 268] = 67%
• O=C(NCCc1cn2ccccc2n1)c1cccc2cnc(N[C@H]3CC[C@H](O)CC3)nc12 [Example 494] = 16%
• O=C(NCCn1cccn1)c1cccc2cnc(N[C@H]3CC[C@H](O)CC3)nc12 [Example 507] = 25%
• O=C1CC[C@H](COc2ccc3cnc(N[C@H]4CC[C@H](O)CC4)nc3c2)N1 [Example 284] = 53%
• CC(C)Nc1ncc2ccc(C(=O)N[C@H](CO)CC3CCCCC3)cc2n1 [Example 429] = 25%

For each listed entry, give its inhibition at 1 µM.
1. CC(C)Nc1ncc2ccc(C(=O)N[C@@H]3COC[C@H]3O)cc2n1 [Example 432]
2. Cc1nnc(CCNC(=O)c2cccc3cnc(N[C@H]4CC[C@H](O)CC4)nc23)[nH]1 [Example 478]
3. Cc1cccn(CCNC(=O)c2cccc3cnc(N[C@H]4CC[C@H](O)CC4)nc23)c1=O [Example 531]
4. O=C(NC[C@@H](O)c1ccccc1)c1cccc2cnc(N[C@H]3CC[C@H](O)CC3)nc12 [Example 474]
5. CNC(=O)[C@H](C)NC(=O)c1cccc2cnc(N[C@H]3CC[C@H](O)CC3)nc12 [Example 516]
6. O=C(N[C@@H](CO)c1ccccc1)c1cccc2cnc(N[C@H]3CC[C@H](O)CC3)nc12 [Example 471]

Reply:
1: 15%; 2: 12%; 3: 26%; 4: 37%; 5: 26%; 6: 19%
